System: NCI-H929 cells
Assay: Cell viability assay (NCI-H929 cells), CCK-8
Type: cell-based
Conditions: Homo sapiens, NCI-H929, 24 h, 5% FBS
measure: pIC50
Please keep in mind that pIC50 is minus log10 of the molar concentration; only the number is needed.

Provide the documented pIC50 with NCI-H929 cells as the system for "Cc1c(C(=O)O)n2c3ccc(Cl)c(c13)-c1c(nn(C)c1C)CN(S(=O)(=O)c1ccn(C)n1)Cc1cc(n(C)n1)CSc1cc(c3ccc(F)cc3c1)OCCC2" 5.82

Lab note: need pIC50 for "CC(=O)NCc1c(C(=O)O)n2c3ccc(Cl)c(c13)-c1c(nn(C)c1C)CSCc1cc(n(C)n1)CSc1cc(c3ccccc3c1)OCCC2" on NCI-H929 cells, anyone have it? 6.56

Recorded pIC50 for "Cc1c(C(=O)O)n2c3ccc(Cl)c(c13)-c1c(nn(C)c1C)CN(C(=O)c1ccccn1)Cc1cc(n(C)n1)CSc1cc(c3ccc(F)cc3c1)OCCC2" with NCI-H929 cells, please? 6.11

Find pIC50 (NCI-H929 cells) for the entry "CCc1c(C(=O)O)n2c3ccc(Cl)c(c13)-c1c(nn(C)c1C)CSCc1cc(n(C)n1)CSc1cc(c3ccccc3c1)OCCC2" 7.15

For NCI-H929 cells, provide pIC50 of "Cc1c2c(nn1C)CSCc1cc(n(C)n1)CSc1cc(c3ccc(F)cc3c1)OCCCn1c(C(=O)O)cc3c-2c(Cl)ccc31" please. 6.74

Param readout = pIC50; param system = NCI-H929 cells; param query = "Cc1c(C(=O)O)n2c3ccc(Cl)c(c13)-c1c(nn(C)c1C)CN(C(C)C)Cc1cc(n(C)n1)CSc1cc(c3ccc(F)cc3c1)OCCC2" ; response: value 6.65

Return pIC50 measured with NCI-H929 cells given this compound: "Cc1c(C(=O)O)n2c3ccc(Cl)c(c13)-c1c(nn(C)c1C)CN(S(=O)(=O)N(C)C)Cc1cc(n(C)n1)CSc1cc(c3ccc(F)cc3c1)OCCC2" 6.80

Request: pIC50, test system NCI-H929 cells, entry "Cc1c(C(=O)O)n2c3ccc(Cl)c(c13)-c1c(nn(C)c1C)CN(S(=O)(=O)c1cccnc1)Cc1cc(n(C)n1)CSc1cc(c3ccc(F)cc3c1)OCCC2" 6.70

# value lookup — system NCI-H929 cells, readout pIC50, item "Cc1c2c(nn1C)CSCc1cc(n(C)n1)CSc1cc(c3ccc(F)cc3c1)OCCCn1c(C(=O)O)c(C#N)c3c-2c(Cl)ccc31" 5.37

Test system NCI-H929 cells; read-out pIC50; what value for "Cc1c(C(=O)O)n2c3ccc(Cl)c(c13)-c1c(nn(C)c1C)CN(c1ccccc1)Cc1cc(n(C)n1)CSc1cc(c3ccc(F)cc3c1)OCCC2" ? 6.84

Reported pIC50 for NCI-H929 cells, given "Cc1c(C(=O)O)n2c3ccc(Cl)c(c13)-c1c(nn(C)c1C)CN(CC(=O)N(C)C)Cc1cc(n(C)n1)CSc1cc(c3ccc(F)cc3c1)OCCC2" ? 6.17

Form: Entry = "Cc1c(C(=O)O)n2c3ccc(Cl)c(c13)-c1c(nn3c1COCC3)CN(S(=O)(=O)C1CC1)Cc1cc(n(C)n1)CSc1cc(c3ccc(F)cc3c1)OCCC2" | System = NCI-H929 cells | pIC50 = ____ 6.21
